- SYSTEM_NAME: Neu5Ac(a2-3)Gal(b1-4)GlcNAc(b1-2)Man
- ASSAY_DETAILS: glycan array binding signal (z-score within array); higher = stronger binding
- TEST_CONDITIONS: glycan notation: IUPAC condensed, linker removed
Only a selection was taken, and the strongest signals are over-represented in it overall.
RESULT_TYPE: glycan array binding signal (z-score)
Please reply with the value in numeric form only.

-- ask Record request: glycan array binding signal (z-score) value, item HA-00510 (Pseudomonas aeruginosa), Q02V39_PSEAB (protein) GVPIVNIATPNGAGLSNNHFRDYNVGANGLILNNATGKTQGTQLGGIILGNPNLKGQAAQVILNQVTGGNRSTLAGYTEVAGQSARVIVANPHGITCQGCGFINTPRATLTTGKPIMDGQRLERFQVDGGDIVVEGAELNVGNLEQFDLITRSAKLNAKLYAKNLNIVTGRNDVQADSLQATPRAADGSEKPQLAIDSSALGGMYAGAIRLVGTEQGVGVKLAGDMAASGGDIRIDASGKLSLAQASSQGDLKIAAQAVELNGKTYAGGSAEIRSAEELVNRQS
-- reply 1.18

Taken from the supplement of paper PMC8728848.
